# Tested on: HTT mRNA
# assay-summary: Splicing RT-qPCR assay, HTT canonical (CJ) and alternative (AJ) junction mRNA
# Format: cell-based, human
# test-parameters: Homo sapiens, A673 or K562 cells, 24 hours compound treatment, read-out: HTT AJ (AC50, increase in alternative junction mRNA)
Counter-ions that a name gives are not always drawn.
Consider the following compounds; for each one, report its AC50.

Use the examples below as a reference point.
Considering CCn1cc2c(N3CC[C@H](N(C)C)C3)cc(F)c(C(=O)Nc3cc(F)c4nc(C)cn4c3)c2n1 [Compound 472] , its AC50 with HTT mRNA was recorded as 1 to 10 µM

Considering Cc1cn2cc(NC(=O)c3cc(C)c(N4CCNCC4)c4cn(C)nc34)cc(F)c2n1 [Compound 300] , its AC50 with HTT mRNA was recorded as > 10 µM

Considering Cc1cn2cc(NC(=O)c3ccc(N4CC[C@@H](NC5CC56CCOCC6)C4)c4cn(C)nc34)cc(F)c2n1 (stereo partly shown) [Compound 649] , its AC50 with HTT mRNA was recorded as > 10 µM

Considering Cc1nc2c(C)cc(NC(=O)c3ccc(N4CCNCC4)c4cn(C)nc34)nc2o1 [Compound 511] , its AC50 with HTT mRNA was recorded as 0.1 to 1 µM

Considering Cc1cn2cc(NC(=O)c3ccc(C4CCNCC4)c4c3OCC4)cc(F)c2n1 [Compound 188] , its AC50 with HTT mRNA was recorded as > 10 µM

Need AC50 for each of these compounds.
1. Cc1cc2c(N3CCNCC3)ccc(C(=O)Nc3cn[nH]c3)c2o1 [Compound 268]
2. Cc1cn2nc(-c3ccc(C(=O)NC4CCNCC4)c4oc(C)cc34)cc(C)c2n1 [Compound 282]
3. CCn1cc2c(C3CCNC3)ccc(C(=O)Nc3cc(F)c4nccn4c3)c2n1 (stereo not shown) [Compound 526]
4. Cc1cn2nc(NC(=O)c3ccc(N4CCNCC4)c4cn(C)nc34)cc2c(C)n1 [Compound 247]
5. CCn1cc2c(N3C[C@@H](C)N[C@@H](C)C3)cc(F)c(C(=O)Nc3cc(F)c4nc(C)cn4c3)c2n1 [Compound 475, trifluoroacetic acid]
6. CNC1CCN(c2ccc(C(=O)Nc3cn4cc(C)nc4c(N(C)C)n3)c3nn(C)cc23)C1 (stereo not shown) [Compound 419]
7. COc1c(NC(=O)c2ccc(N3CCNCC3)c3cn(C)nc23)cc2cn(C)nc2c1F [Compound 315, hydrochloride]

Response line:
1. > 10 µM
2. 1 to 10 µM
3. > 10 µM
4. > 10 µM
5. 0.1 to 1 µM
6. > 10 µM
7. 0.1 to 1 µM

Need AC50 for each of these compounds.
1. CCNC1CCN(c2ccc(C(=O)Nc3cn4cc(C)nc4c(F)c3OC)c3oc(C)cc23)CC1 [Compound 501, 2,2,2-trifluoroacetate]
2. Cc1cn2c(n1)CCC(NC(=O)c1ccc(N3CCNCC3)c3cn(C)nc13)C2 (stereo not shown) [Compound 457]
3. CCn1cc2c(N3CCC4(CCN4)CC3)ccc(C(=O)Nc3cc(F)c4nc(C)cn4c3)c2n1 [Compound 394]
4. COC1CC(n2cc3c(N4CCNCC4)ccc(C(=O)Nc4cc(F)c5nc(C)cn5c4)c3n2)C1 (stereo not shown) [Compound 424]
5. Cc1cn2cc(NC(=O)c3ccc(N4CC[C@@H](NC5COC5)C4)c4cn(C)nc34)cc(F)c2n1 [Compound 531]

Response line:
< 0.1 µM
> 10 µM
1 to 10 µM
> 10 µM
1 to 10 µM

###

Consider the following compounds; for each one, report its pIC50.
# Tested on: HTT mRNA
# assay-summary: Splicing RT-qPCR assay, HTT canonical (CJ) and alternative (AJ) junction mRNA
# Format: cell-based, human
# test-parameters: Homo sapiens, Table 3B, canonical junction mRNA, read-out: HTT CJ (IC50, decrease in CJ mRNA)
# Procedure: Compounds described herein were used to modulate RNA transcript abundance in cells. The expression of a target mRNA was measured by detecting the formation of an exon-exon junction in the canonical transcript (CJ). A compound mediated exon-inclusion event was detected by observing an increase in formation of a new junction with an alternative exon (AJ). Real-time qPCR assays were used to detect these splicing switches and interrogate the potency of various compounds towards different target genes. […]
pIC50: −log10 of the molar value.

Record CCNC1CCN(c2ccc(C(=O)Nc3cc(F)c4nc(C)cn4c3)c3nc(CC)sc23)C1 (centres unmarked) , field pIC50: 5.00 to 6.00

Record CCNC1CCN(c2ccc(C(=O)Nc3cc(F)c4nc(C)cn4c3)n3nc(CC)cc23)C1 (centres unmarked) , field pIC50: 6.00 to 7.00

Record `Cc1cn2cc(NC(=O)c3ccc(N4CCNCC4)n4cc(C)nc34)cc(F)c2n1` , field pIC50: 6.00 to 7.00

Need pIC50 for each of these compounds.
1. Cc1cn2cc(NC(=O)c3ccc(N4CCNCC4)c4cc(C)nn34)cc(F)c2n1
2. Cc1cn2cc(NC(=O)c3ccc(N4CC[C@@H](NC5CC5)C4)n4cc(C)nc34)cc(F)c2n1
3. Cc1cn2cc(NC(=O)c3ccc(N4CCC(NC5CC5)CC4)c4csnc34)cc(F)c2n1
4. Cc1cn2cc(NC(=O)c3ccc(N4C[C@@H](C)N[C@@H](C)C4)c4csnc34)cc(F)c2n1

Response line:
["> 7.00", "> 7.00", "6.00 to 7.00", "6.00 to 7.00"]

Need pIC50 for each of these compounds.
1. CCc1cn2c(N3CCNCC3)ccc(C(=O)Nc3cc(F)c4nc(C)cn4c3)c2n1
2. COc1c(NC(=O)c2ccc(N3CC[C@@H](NC4CC4)C3)c3nc(C)nn23)cn2cc(C)nc2c1F
3. Cc1cn2cc(NC(=O)c3ccc(N4C[C@@H](C)N[C@@H](C)C4)c4nsnc34)cc(F)c2n1
4. CCNC1CCN(c2ccc(C(=O)Nc3cc(F)c4nc(C)cn4c3)n3nc(CO)cc23)C1 (centres unmarked)
5. Cc1cn2cc(NC(=O)c3ccc(N4CC[C@@H](NC5CC5)C4)c4csnc34)cc(F)c2n1

Response line:
1: 6.00 to 7.00; 2: 6.00 to 7.00; 3: 6.00 to 7.00; 4: > 7.00; 5: 5.00 to 6.00

###

# Tested on: MYB mRNA
# assay-summary: Splicing RT-qPCR assay, MYB canonical (CJ) and alternative (AJ) junction mRNA
# Format: cell-based, human
# test-parameters: Homo sapiens, 24 h, A673 or K562 cells, 24 hours compound treatment, RT-qPCR; read-out: MYB CJ (IC50, decrease in canonical junction mRNA)
property-label: IC50

Considering `C=C(C)n1ncc2c(N3CCNCC3)ccc(C(=O)Nc3cc(F)c4nc(C)cn4c3)c21` , its IC50 with MYB mRNA was recorded as > 10000 nM

Considering `CCn1cc2c(N3CC[C@@H](NC4CC4)C3)ccc(C(=O)Nc3cc(F)c4nc(C)cn4c3)c2n1` , its IC50 with MYB mRNA was recorded as 100 to 1000 nM

Considering `CCn1cc2c(N3CCN(C)CC3)ccc(C(=O)Nc3cc(F)c4nc(CO)oc4c3)c2n1` , its IC50 with MYB mRNA was recorded as > 10000 nM

Considering `Cc1cn2cc(NC(=O)c3ccc(N4C[C@H]5CC[C@@H](C4)N5)c4cc(C)oc34)cc(F)c2n1` , its IC50 with MYB mRNA was recorded as 100 to 1000 nM

Considering `COc1c(NC(=O)c2ccc(N3CCNCC3)c3cn(C)nc23)cc2cn(C)nc2c1C` , its IC50 with MYB mRNA was recorded as 1000 to 10000 nM

Considering `COc1c(NC(=O)c2ccc(N3CCNCC3)c3cn(C)nc23)cn2cc(C)nc2c1F` , its IC50 with MYB mRNA was recorded as < 100 nM

Considering CNC1CCN(c2ccc(C(=O)Nc3cn4cc(C)nc4c(OC)n3)c3nn(C)cc23)C1 (centres unmarked) , its IC50 with MYB mRNA was recorded as < 100 nM

Considering `CCn1cc2c(N3CC[C@@H](NC)C3)ccc(C(=O)Nc3cc(Cl)c4nc(C)cn4c3)c2n1` , its IC50 with MYB mRNA was recorded as 1000 to 10000 nM

Considering CC1=NC2C=C(NC(=O)c3ccc(N4CCNC(C)(C)C4)c4cn(C)nc34)C=C(F)C2=N1 (centres unmarked) , its IC50 with MYB mRNA was recorded as < 100 nM

Considering `CCn1cc2c(N3C[C@@H](C)N[C@@H](C)C3)cc(F)c(C(=O)Nc3cc(F)c4nc(C)cn4c3)c2n1` , its IC50 with MYB mRNA was recorded as < 100 nM

Need IC50 for each of these compounds.
1. Cc1cn2cc(NC(=O)c3ccc(N(C)C4CCN(C)CC4)c4cc(C)oc34)cc(F)c2n1
2. CNc1nc(NC(=O)c2ccc(N3CC[C@@H](NC)C3)c3cn(C)nc23)cn2cc(C)nc12
3. Cc1cn2cc(NC(=O)c3ccc(N4CC5(N)CC4C5)c4cn(C)nc34)cc(F)c2n1
4. CCN[C@@H]1CCN(c2ccc(C(=O)Nc3cc(F)c4nc(C)cn4c3)c3nn(C)cc23)C1
5. CCn1cc2c(N3CCC(C)(NC)C3)ccc(C(=O)Nc3cc(F)c4nc(C)cn4c3)c2n1 (centres unmarked)
6. Cc1cn2cc(NC(=O)c3ccc(N4CCNCC4)c4cc(C)oc34)cc(Cl)c2n1

Response line:
["1000 to 10000 nM", "1000 to 10000 nM", "< 100 nM", "< 100 nM", "1000 to 10000 nM", "100 to 1000 nM"]

Need IC50 for each of these compounds.
1. Cc1cn2cc(NC(=O)c3ccc(N4CCNCC4)c4cn(C(C)C)nc34)cc(F)c2n1
2. Cc1cn2cc(NC(=O)c3ccc(C4CC(C)(C)NC(C)(C)C4)c4cn(C)nc34)cc(F)c2n1
3. CCn1cc2c(N3CCC(NC4C5CNCC54)CC3)ccc(C(=O)Nc3cc(F)c4nc(C)cn4c3)c2n1 (centres unmarked)
4. CCN(CC)C1(C)CCN(c2ccc(C(=O)Nc3cc(F)c4nc(C)cn4c3)c3nn(CC)cc23)CC1
5. C=Cn1cc2c(N3CCC(NC)CC3)ccc(C(=O)Nc3cc(F)c4nc(C)cn4c3)c2n1
6. CCn1cc2c(N3CCNCC3)ccc(C(=O)Nc3cc(F)c4ncccc4c3)c2n1
7. Cc1cn2cc(NC(=O)c3ccc(N4CCNCC4)c4cc(C)oc34)c(C)cc2n1
8. Cc1cn2nc(-c3ccc(C(=O)NC4CCNCC4)c4nn(C)cc34)cc(C)c2n1

Response line:
1. 100 to 1000 nM
2. 100 to 1000 nM
3. 100 to 1000 nM
4. 100 to 1000 nM
5. < 100 nM
6. > 10000 nM
7. 100 to 1000 nM
8. 1000 to 10000 nM

Need IC50 for each of these compounds.
1. Cc1nnc2ccc(NC(=O)c3ccc(N4CCNCC4)c4cn(C)nc34)cn12
2. CCNC1CCN(c2ccc(C(=O)Nc3cn4cc(C)nc4c(F)c3OC)c3oc(C)cc23)CC1 [Compound 501, 2,2,2-trifluoroacetate]
3. Cc1cn2cc(NC(=O)c3ccc(N4CC(C)(C)NC(C)(C)C4)c4cc(C)oc34)cc(F)c2n1
4. CCn1cc2c(N3CCN4CCOC[C@@H]4C3)ccc(C(=O)Nc3cc(F)c4nc(C)cn4c3)c2n1

Response line:
["> 10000 nM", "< 100 nM", "100 to 1000 nM", "1000 to 10000 nM"]

Considering `CCn1cc2c(N3CCC(NC4CC4)CC3)ccc(C(=O)Nc3cc(F)c4nc(C)cn4c3)c2n1` , its IC50 with MYB mRNA was recorded as 100 to 1000 nM
